Data provenance is patent US9328099B2.

system: JAK2 (Homo sapiens (Human), UniProt O60674)
Sequence (O60674 849-1124): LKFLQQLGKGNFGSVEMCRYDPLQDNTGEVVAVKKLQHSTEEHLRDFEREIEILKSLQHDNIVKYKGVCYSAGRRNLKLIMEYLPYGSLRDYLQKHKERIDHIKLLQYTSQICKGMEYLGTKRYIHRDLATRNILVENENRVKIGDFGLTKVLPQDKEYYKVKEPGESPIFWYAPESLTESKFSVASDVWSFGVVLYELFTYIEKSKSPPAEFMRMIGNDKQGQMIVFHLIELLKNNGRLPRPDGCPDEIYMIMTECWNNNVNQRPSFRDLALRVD
assayProcedure: Jak Biochemical HTRF Assay, JAK2
runConditions: HTRF biochemical assay, GST-tagged catalytic domain; top concentration tested […]
Catalogue of IC50 readings, one per entry.

Guide cases for IC50, answers given:
• N#CCC1(n2cc(C(N)=O)c(Nc3ccnc(F)c3)n2)CCC(NCc2ccccn2)CC1 (stereo not shown) = 1.39 µM
• N#CCC1(n2cc(C(N)=O)c(Nc3ccnc(F)c3)n2)CCC(NCc2cccc(F)c2)CC1 (stereo not shown) [Example 41-19] = 0.009 µM
• N#CCC1(n2cc(C(N)=O)c(Nc3ccc(F)cc3)n2)CCN(c2ccc(OC(F)F)nc2)CC1 = 0.021 µM

Now examine the next entry.
Query: Record request: IC50 value, item Cc1cc(C)cc(NC(=O)N2CC(CC#N)(n3cc(C(N)=O)c(Nc4ccccc4)n3)C2)c1
Result: 0.326 µM

====

system: JAK2 (Homo sapiens (Human))
assayProcedure: Jak Biochemical HTRF Assay, JAK2
runConditions: HTRF biochemical assay, GST-tagged catalytic domain; top concentration tested […]
assayMetric: log10 of IC50 (log10 of the value in nM)
Please note: log10 values; quantity IC50; unit nM.

Worked examples follow.
• C[C@@H](NC(=O)N1CC(CC#N)(n2cc(C(N)=O)c(Nc3ccccc3)n2)C1)c1ccccc1 = 2.42
• CC(C)(C)C(=O)N1CCC(CC#N)(n2cc(C(N)=O)c(Nc3ccccc3)n2)CC1 = 1.96
• CCOc1ccc(N2CCC(CC#N)(n3cc(C(N)=O)c(Nc4ccc(F)cc4)n3)CC2)cn1 = 1.66
• N#CCC1(n2cc(C(N)=O)c(Nc3ccccc3)n2)CCN(C(=O)OC2CCOC2)CC1 (centres unmarked) = 1.60
• CC(C)(C)OC(=O)N1CCC(CC#N)(n2cc(C(N)=O)c(Nc3cccc(-c4ccc(Cl)cc4)c3)n2)CC1 = 3.17

Query: Recorded log10 of IC50 for N#CCC1(n2cc(C(N)=O)c(Nc3ccccc3)n2)CN(C(=O)OC2CCCC2)C1 with JAK2 (Homo sapiens (Human)), please?
Result: 1.88

Query: Repeat with N#CCC1(n2cc(C(N)=O)c(Nc3ccccc3)n2)CN(C(=O)OC2CCCCC2)C1
Result: 2.67

Query: Would you kindly repeat that for N#CCC1(n2cc(C(N)=O)c(Nc3ccnc(F)c3)n2)CCC(NCc2ccc(C#N)cc2)CC1 (centres unmarked) ?
Result: 2.93

====

system: JAK2 (Homo sapiens (Human))
assayProcedure: Jak Biochemical HTRF Assay, JAK2
runConditions: HTRF biochemical assay, GST-tagged catalytic domain; top concentration tested […]
assayMetric: IC50

Below: 10 molecules and their reported IC50.
* N#CCC1(n2cc(C(N)=O)c(Nc3ccnc(F)c3)n2)CCN(Cc2cccc(C#N)c2)CC1 | 33 nM
* N#CCC1(n2cc(C(N)=O)c(Nc3ccccc3)n2)CN(C(=O)OCCF)C1 | 27 nM
* N#CCC1(n2cc(C(N)=O)c(Nc3ccc(F)cc3)n2)CCC(N2CCC2)CC1 (stereo not shown) | 325 nM
* N#CCC1(n2cc(C(N)=O)c(Nc3ccc(F)cc3)n2)CCN(Cc2cncc(F)c2)CC1 | 29 nM
* N#CCC1(n2cc(C(N)=O)c(Nc3ccc(F)cc3)n2)CCN(c2ccnc3ccccc23)CC1 | 488 nM
* COc1ccc(CC(=O)N2CCC(CC#N)(n3cc(C(N)=O)c(Nc4ccccc4)n3)CC2)cc1 | 84 nM
* N#CCC1(n2cc(C(N)=O)c(Nc3ccccc3)n2)CCN(Cc2cccc(O)c2)CC1 | 6 nM
* COC(=O)c1cccc(N2CCC(CC#N)(n3cc(C(N)=O)c(Nc4ccc(F)cc4)n3)CC2)n1 | 280 nM
* N#CCC1(n2cc(C(N)=O)c(Nc3ccccc3)n2)CCN(C(=O)c2ccccc2Cl)CC1 | 115 nM
* CCCCNC(=O)N1CC(CC#N)(n2cc(C(N)=O)c(Nc3ccc(S(C)(=O)=O)cc3)n2)C1 | 322 nM

Query: # query: IC50 of entry C[C@H]1CN(C(=O)OC(C)(C)C)CC[C@]1(CC#N)n1cc(C(N)=O)c(Nc2ccccc2)n1 (single isomer, unassigned) [Example 48-1]
Result: 24 nM

Query: # iterate: CC1(COC(=O)N2CCC(CC#N)(n3cc(C(N)=O)c(Nc4ccc(F)cc4)n3)CC2)COC1
Result: 240 nM

Query: Try N#CCC1(n2cc(C(N)=O)c(Nc3cncc(F)c3)n2)CCN(C(=O)OCC(F)F)CC1 next.
Result: 19 nM

Query: Here is the next molecule: N#CCC1(n2cc(C(N)=O)c(Nc3ccccc3)n2)CCN(Cc2cccc3ccccc23)CC1
Result: 1300 nM

Query: // query: Cc1ccc(N2CCC(CC#N)(n3cc(C(N)=O)c(Nc4ccc(F)cc4)n3)CC2)cc1F
Result: 215 nM

Query: Try this molecule too: N#CCC1(n2cc(C(N)=O)c(Nc3ccccc3)n2)CCN(S(=O)(=O)Cc2ccccc2)CC1
Result: 35 nM

Query: Follow-up item: COc1cccc(COC(=O)N2CC(CC#N)(n3cc(C(N)=O)c(Nc4ccccc4)n3)C2)c1
Result: 423 nM

====

system: JAK2 (Homo sapiens (Human), UniProt O60674)
assayProcedure: Jak Biochemical HTRF Assay, JAK2
runConditions: HTRF biochemical assay, GST-tagged catalytic domain; top concentration tested […]
assayMetric: pIC50
Entry type: numeric. Quantity: pIC50, the -log10 of concentration in molar units.

Query: Look up pIC50: N#CCC1(n2cc(C(N)=O)c(Nc3ccnc(F)c3)n2)CCN(Cc2cocn2)CC1
Result: 6.93

Query: // repeat for COCCNC1CCC(CC#N)(n2cc(C(N)=O)c(Nc3ccc(F)cc3)n2)CC1 (centres unmarked) and report
Result: 6.09

Query: Another molecule to look at: Cc1c(Cl)cccc1NC(=O)N1CC(CC#N)(n2cc(C(N)=O)c(Nc3ccccc3)n2)C1
Result: 6.60

Query: Also CS(=O)(=O)c1ccc(Nc2nn(C3(CC#N)CCCCC3)cc2C(N)=O)cc1 , if possible.
Result: 6.71

Query: Same question for N#CCC1(n2cc(C(N)=O)c(Nc3ccnc(F)c3)n2)CCN(C(=O)OCC2CC2)CC1 please.
Result: 7.74

Query: // next record CCC(F)(F)C(=O)N1CCC(CC#N)(n2cc(C(N)=O)c(Nc3ccnc(F)c3)n2)CC1
Result: 8.52

Query: Field entry: N#CCC1(n2cc(C(N)=O)c(Nc3ccnc(F)c3)n2)CCN(C(=O)CC2CCCO2)CC1 (centres unmarked)
Result: 7.38

====

system: UniProt:P23458
Sequence (P23458 875-1153): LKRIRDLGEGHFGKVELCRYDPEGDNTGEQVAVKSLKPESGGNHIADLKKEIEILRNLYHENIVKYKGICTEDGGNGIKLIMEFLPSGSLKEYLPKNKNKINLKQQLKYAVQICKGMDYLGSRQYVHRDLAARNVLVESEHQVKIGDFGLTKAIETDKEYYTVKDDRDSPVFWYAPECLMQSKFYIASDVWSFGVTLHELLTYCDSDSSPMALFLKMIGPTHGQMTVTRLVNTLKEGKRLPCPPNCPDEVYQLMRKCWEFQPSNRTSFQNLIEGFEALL
assayProcedure: Jak Biochemical HTRF Assay, JAK1
runConditions: HTRF biochemical assay, GST-tagged catalytic domain; top concentration tested […]; read-out: JAK1 IC50
Collected log10(IC50) values appear next to each entry.
Record value = log10 of IC50 given in nM.

Below are worked cases with known answers.
- N#CCC1(n2cc(C(N)=O)c(Nc3ccc(F)cc3)n2)CCC(Nc2cc(F)ccc2F)CC1 (stereo not shown): -1.00
- CC(C)(C)OC(=O)N1CCC(CC#N)(n2cc(C(N)=O)c(Nc3ccccc3)n2)C1 (stereo not shown): 0.30
- N#CCC1(n2cc(C(N)=O)c(Nc3ccc(S(=O)(=O)C(F)F)cc3)n2)CCC(NCC(F)(F)F)CC1 (stereo not shown) [Example 40-89]: 1.11

Query: Suppose we examine the molecule N#CCC1(n2cc(C(N)=O)c(Nc3ccnc(F)c3)n2)CCC(NCc2ccccc2Cl)CC1 (stereo not shown) [Example 41-10] ; what log10(IC50) value has been reported?
Result: -1.52

Query: N#CCC1(n2cc(C(N)=O)c(Nc3ccccc3)n2)CN(C(=O)Nc2cc(F)ccc2F)C1 , same question.
Result: 0.70

Query: Let us now turn to N#CCC1(n2cc(C(N)=O)c(Nc3ccc(F)cc3)n2)CCN(C(=O)OC(CF)CF)CC1
Result: -0.52

Query: Another molecule to look at: CC(C)(O)C(=O)N1CCC(CC#N)(n2cc(C(N)=O)c(Nc3ccnc(F)c3)n2)CC1
Result: 1.04

Query: // same read-out, input: N#CCC1(n2cc(C(N)=O)c(Nc3ccccc3)n2)CCN(S(=O)(=O)c2ccccc2)CC1
Result: -0.52

Query: And for N#CCC1(n2cc(C(N)=O)c(Nc3ccnc(F)c3)n2)CCN(Cc2ccccc2)CC1 ?
Result: -1.00

Query: And then N#CCC1(n2cc(C(N)=O)c(Nc3ccc(F)cc3)n2)CCC(N2CCc3ccccc32)CC1 (stereo not shown) [Example 40-21] , what is it?
Result: 2.23

Query: Could you do the same for N#CCC1(n2cc(C(N)=O)c(Nc3ccc(F)cc3)n2)CCN(C(=O)OCC(F)(F)CO)CC1 , please?
Result: -0.70

Query: Cool, now N#CCC1(n2cc(C(N)=O)c(Nc3ccc(F)cc3)n2)CCC(Nc2cccc(F)c2)CC1 (stereo not shown) [Example 40-3]
Result: 2.08

Query: Can you handle N#CCC1(n2cc(C(N)=O)c(Nc3ccccc3)n2)CCN(Cc2c(F)cccc2F)CC1 next?
Result: -0.10

Query: Lookup N#CCC1(n2cc(C(N)=O)c(Nc3ccc(C(O)C(F)(F)F)nc3)n2)CCN(C(=O)OCC(F)(F)F)CC1 (stereo not shown)
Result: -1.22

Query: Another molecule: CCOC(=O)C(C)NC(=O)N1CC(CC#N)(n2cc(C(N)=O)c(Nc3ccccc3)n2)C1 (stereo not shown)
Result: 1.58

Query: And N#CCC1(n2cc(C(N)=O)c(Nc3ccc(F)cc3)n2)CCN(c2cncc(F)c2)CC1 ?
Result: -0.70
